Test system: OVCAR-4 ovarian
assay.explanation: NCI-60 one-dose screen, 48 h
experimental.parameters: 10 µM unless noted
This is part of a sample that, as a whole, favours compounds with a hit. Of some 83,000 tested, about 20% had one in any assay. Activity calls are given as the source filed them. The calls were made as follows: active = growth percent below 10; inactive = the rest.
Labels: active, inactive

{"molecule": "Cn1cc(C(=O)NCCC(=N)N)cc1NC(=O)CN=C(N)N", "category": "inactive"}
{"molecule": "COc1ccc(/C=C(\\C#N)c2ccc(OC)cc2)cc1", "category": "inactive"}
{"molecule": "COc1cccc(OC(=O)c2ccccc2)c1OC(=O)c1ccccc1", "category": "inactive"}
{"molecule": "O=C1C(OCCOc2ccccc2)=C(OCCOc2ccccc2)C(=O)c2ccccc21", "category": "inactive"}
{"molecule": "c1ccc2c(c1)oc1cc3c(cc12)nnc1cccn13", "category": "inactive"}
{"molecule": "NC1=NC(c2ccccc2OS(=O)(=O)c2ccc(Br)cc2)n2c(nc3ccccc32)N1 (stereo not given)", "category": "inactive"}
{"molecule": "O=C1/C(=C/c2ccc(Cl)cc2)CN(Cc2cn(CCCNc3ccnc4cc(Cl)ccc34)nn2)C/C1=C\\c1ccc(Cl)cc1", "category": "active"}
{"molecule": "COC(=O)C1C2CC3c4[nH]c5cc(OC)ccc5c4CCN3CC2CC(OC2CCCCO2)C1OC (stereo not given)", "category": "inactive"}
{"molecule": "O=C1/C(=C/c2ccccc2F)CNC/C1=C\\c1ccccc1F", "category": "active"}
{"molecule": "FC(F)(F)c1ccc2c(c1)n1cnnc1c1nncn21", "category": "inactive"}

Data provenance: PubChem BioAssay (NCI)
